Measured Response accompanies every entry in the list below.
# System Name: SARS-CoV-2 Spike protein receptor-binding domain (RBD) (SARS-CoV-2, UniProt P0DTC2 319-527)
# Test Description: BLI (Octet), IgG1 captured on anti-human Fc sensors, RBD in solution; also: test concentration or dose not given here
Note: unit nm shift is implicit; provide only the numeric part.

| Binder | Response, nm shift |
| --- | --- |
| AB-12 full-length IgG1 (humanized) (antibody, V domains shown) VH: EVQLVQSGAEVKKPGESLKISCKASGYTFTTYWMHWVRQMPGKGLEWMGAIYPGNSDTRYSPSFQGQVTLSVDKSITTAYLQWNSLKASDTAMYFCTREGIPQLLRTLDYWGQGTLVTVSS VL: DIQMTQSPSSLSASVGDRVTITCRASQGISGYLSWLQQKPEKAPKRLIYAASTLQSGVPSRFSGSGSGTDFTLTISSLQPEDFATYYCQQYLSYPWTFGQGTKLEIK | 0.145 |
| AB-10 full-length IgG1 (humanized) (antibody, V domains shown) VH: QVQLVQSGAEVKKPGASVKVSCKASGYTFTSYWMHWVRQAPGQGLEWMGAIYPGNGDTNYAQKFQGRVTMTADTSISTAYMELSRLRSDDTAVYYCTREGIPQLLNTLDVWGQGTLVTVSS VL: DIQMTQSPSSLSASVGDRVTITCRASQEISGYLNWYQQKPGKAPKRLIYAASSLQSGVPSRFSGSGSGTDFTLTISSLQPEDFATYYCQQYLSYPWTFGQGTKVEIK | 0.114 |
| AB-1 full-length IgG1 (antibody, V domains shown) VH: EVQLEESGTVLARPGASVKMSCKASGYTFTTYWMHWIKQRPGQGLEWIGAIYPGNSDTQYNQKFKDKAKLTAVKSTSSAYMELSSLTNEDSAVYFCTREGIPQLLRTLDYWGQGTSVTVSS VL: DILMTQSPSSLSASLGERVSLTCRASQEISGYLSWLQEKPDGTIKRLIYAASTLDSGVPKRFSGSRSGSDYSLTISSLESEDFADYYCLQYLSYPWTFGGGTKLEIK | 0.364 |
| AB-11 full-length IgG1 (humanized) (antibody, V domains shown) VH: EVQLVQSGAEVKKSGESLKISCKASGYTFTTYWMHWVRQMPGKGLEWMGAIYPGNSDTQYSPSFQGQVTLSADKSISTAYLQWSSLKASDTAMYFCTREGIPQLLRTLDYWGQGTLVTVSS VL: EIVLTQSPGTLSLSPGERATLSCRASQEISGYLAWLQQKPGQAPRRLIYAASSLATGIPDRFSGSGSGTDFTLTISRLEPEDFAVYYCLQYLSYPWTFGQGTKVEIK | 0.319 |

Look up Response for this binder: AB-5 full-length IgG1 (antibody, V domains shown) VH: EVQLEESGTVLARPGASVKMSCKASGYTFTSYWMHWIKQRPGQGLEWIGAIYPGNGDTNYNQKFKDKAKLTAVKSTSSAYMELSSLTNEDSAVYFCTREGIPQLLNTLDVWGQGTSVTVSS VL: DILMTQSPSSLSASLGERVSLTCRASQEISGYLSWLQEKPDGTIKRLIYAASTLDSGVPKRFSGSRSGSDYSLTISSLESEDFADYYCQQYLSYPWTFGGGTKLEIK
0.315
